test system: L. acidophilus NCFM; assay: RNA-seq transcriptional analysis of L. acidophilus NCFM growing on plant glycosides; type: cell-based, Lactobacillus acidophilus; details: gene LBA1869 (Beta-phosphoglueomutase)
MEASURE: Log2 differential normalized TPM ratio compared to glucose

[
  {
    "ITEM_SMILES": "OC[C@H]1O[C@@H](O[C@H]2[C@H](O)[C@@H](O)[C@@H](O)O[C@@H]2CO)[C@H](O)[C@@H](O)[C@H]1O",
    "NUMERIC_READOUT": 2.4
  },
  {
    "ITEM_SMILES": "N#C[C@H](O[C@@H]1O[C@H](CO[C@@H]2O[C@H](CO)[C@@H](O)[C@H](O)[C@H]2O)[C@@H](O)[C@H](O)[C@H]1O)c1ccccc1",
    "NUMERIC_READOUT": 6.7
  },
  {
    "ITEM_SMILES": "OCc1ccccc1O[C@@H]1O[C@H](CO)[C@@H](O)[C@H](O)[C@H]1O",
    "NUMERIC_READOUT": 2.4
  },
  {
    "ITEM_SMILES": "O=c1ccc2cc(O[C@@H]3O[C@H](CO)[C@@H](O)[C@H](O)[C@H]3O)c(O)cc2o1",
    "NUMERIC_READOUT": 4.2
  }
]
